Recorded melting point by entry

Worked cases, melting point given:
q: I have this compound here, COc1cc(CN2CC[C@H](O)C2)ccc1-c1nc2c(N[C@H]3[C@@H](C(N)=O)[C@@H]4C=C[C@H]3C4)c(Cl)cnc2[nH]1 [Compound LV] , and I need its recorded melting point.
a: 205 to 208 °C

q: Input Cn1cccc1-c1nc2c(N[C@H]3[C@@H](C(N)=O)[C@@H]4C=C[C@H]3C4)c(Br)cnc2[nH]1 [Compound CIX]
a: 293 to 295 °C

q: And NC(=O)[C@@H]1[C@H](Nc2c(Cl)cnc3[nH]c(-c4cccc(C(=O)N5CCNC(C(=O)O)C5)c4)nc23)[C@H]2C=C[C@@H]1C2 (stereo partly shown) [Compound CCXXV] ?
a: 261 °C

q: Now the same for NC(=O)[C@@H]1[C@H](Nc2c(Br)cnc3[nH]c(-c4cccc(N5CCOCC5)c4)nc23)[C@H]2C=C[C@@H]1C2 [Compound LXXXIII]
a: 232 to 234 °C

q: Again, but for NC(=O)[C@@H]1[C@H](Nc2c(Br)cnc3[nH]c(-c4cncnc4)nc23)[C@H]2C=C[C@@H]1C2 [Compound CVII]
a: > 300 °C

q: Next: NC(=O)[C@@H]1[C@H](Nc2ccnc3[nH]c(-c4cccc(CN5CCOCC5)c4)nc23)[C@H]2C=C[C@@H]1C2 [Compound XCI]
a: 240 to 244 °C

Continuing:
q: Item under review: NC(=O)[C@@H]1[C@H](Nc2c(Br)cnc3[nH]c(-c4ccc(N5CCOCC5)nc4)nc23)[C@H]2C=C[C@@H]1C2 [Compound CXII] . Reported melting point?
a: 288 to 290 °C

q: Next record, please: COc1ncccc1-c1nc2c(N[C@H]3[C@@H](C(N)=O)[C@@H]4C=C[C@H]3C4)c(Br)cnc2[nH]1 [Compound CI]
a: 201 °C

q: Note, next up: COc1cc(N(C)C)ccc1-c1nc2c(N[C@H]3[C@@H](C(N)=O)[C@@H]4C=C[C@H]3C4)ccnc2[nH]1 [Compound XCIII]
a: 185 to 190 °C

q: // query: CC(O)CN1CCN(C(=O)c2ccc(-c3nc4c(N[C@H]5[C@@H](C(N)=O)[C@@H]6C=C[C@H]5C6)c(Cl)cnc4[nH]3)cc2)CC1 (stereo partly shown) [Compound CCXXIV]
a: 224 °C

q: Moving on to COc1cc(N2CCC(N3CCOCC3)CC2)ccc1-c1nc2c(N[C@H]3[C@@H](C(N)=O)[C@@H]4C=C[C@H]3C4)c(Br)cnc2[nH]1 [Compound XCVII]
a: 185 to 195 °C

q: Field entry: COc1cc(CN2CCN(C(C)=O)CC2)ccc1-c1nc2c(N[C@H]3[C@@H](C(N)=O)[C@@H]4C=C[C@H]3C4)c(Cl)cnc2[nH]1 [Compound LI]
a: 109 to 113 °C

q: Then this compound: COc1ccc(-c2nc3c(N[C@H]4[C@@H](C(N)=O)[C@@H]5C=C[C@H]4C5)c(Cl)cnc3[nH]2)c(C2CCN(C[C@@H](C)O)CC2)c1 [Compound XXXI]
a: 186 to 187 °C

q: Same question, COc1c(CN2CCOCC2)cccc1-c1nc2c(N[C@H]3[C@@H](C(N)=O)[C@@H]4C=C[C@H]3C4)c(Cl)cnc2[nH]1 [Compound LIII] this time
a: 133 to 137 °C

q: Same read-out for CN1CCN(c2ccc(-c3nc4c(N[C@H]5[C@@H](C(N)=O)[C@@H]6C=C[C@H]5C6)ccnc4[nH]3)cc2)CC1 [Compound LXXXVIII] ?
a: 220 to 222 °C
